# tested_system: Thermus thermophilus TtPFK optical probe 254/256-TtPFK-cpYFP variant, TtPFK S216Y/I253Q/Q254L/G256V/G257L, cpYFP Y1T/N246F (Thermus thermophilus, UniProt P21777, form not given/G256V/G257L/I253Q/Q254L/S216Y)
# Construct: His-tag
# Sequence (P21777 other isoform, or with tags, fused parts or gaps S216Y, form open): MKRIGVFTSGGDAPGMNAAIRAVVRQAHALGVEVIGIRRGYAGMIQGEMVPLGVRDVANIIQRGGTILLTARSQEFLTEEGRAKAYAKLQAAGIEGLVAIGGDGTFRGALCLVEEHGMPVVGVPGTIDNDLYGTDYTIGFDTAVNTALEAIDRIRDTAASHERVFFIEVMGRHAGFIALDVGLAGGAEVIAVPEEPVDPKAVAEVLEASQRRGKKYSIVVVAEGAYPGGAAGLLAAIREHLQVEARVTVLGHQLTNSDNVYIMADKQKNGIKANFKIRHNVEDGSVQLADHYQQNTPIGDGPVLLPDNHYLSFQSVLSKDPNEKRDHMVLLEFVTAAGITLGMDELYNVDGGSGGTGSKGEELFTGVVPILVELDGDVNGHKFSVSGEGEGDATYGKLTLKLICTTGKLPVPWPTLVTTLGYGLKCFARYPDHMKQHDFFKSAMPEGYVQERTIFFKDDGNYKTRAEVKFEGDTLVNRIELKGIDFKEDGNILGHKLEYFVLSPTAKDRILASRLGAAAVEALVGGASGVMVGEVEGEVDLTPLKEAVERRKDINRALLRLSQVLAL
# protocol_description: phosphoenolpyruvate titration of purified optical probe (fluorescence ratio)
# condition: phosphoenolpyruvate 0 to 10 mM, purified probe treated 10 minutes, ex 420/485 nm, em 528 nm
reported_metric: pKd
The scale used: pKd is minus the common logarithm of the concentration in molar units.

## Task Which measured pKd value corresponds to C=C(OP(=O)(O)O)C(=O)O [phosphoenolpyruvate, Phosphoenolpyruvate] ?
## Result 5.63

Cited source for all entries: patent EP4624497A1
